- EXPERIMENTAL PROTOCOL: total protein half-life in vivo (active degradation + dilution); higher = more stable protein
- CONDITION: wild type E. coli NCM3722; growth: C-lim chemostat; doubling time 12 h
The entries below come with measured total protein half-life in vivo values attached.

MANWLNQLQSLLGQSSSSTSSSADQGLVKLLVPGALGGLAGLLVANKSARKLLTKYGTNALLVGGGAVAGTVLWNKYKDKIRAAHQDEPQFGAQSTPLDERTARLILALVFAAKSDGHIDAKERAAIDQQLRGAGVEEQGRVLIEQAIEQPLDPQRLATGVRNEEEALEIYFLSCAAIDIDHFMERSYLNALGDALKIPQDVRDGIERDLEQQKRTLAE: 9.68 h

So for MMNPLIIKLGGVLLDSEEALERLFSALVNYRESHQRPLVIVHGGGCVVDELMKGLNLPVKKKNGLRVTPADQIDIITGALAGTANKTLLAWAKKHQIAAVGLFLGDGDSVKVTQLDEELGHVGLAQPGSPKLINSLLENGYLPVVSSIGVTDEGQLMNVNADQAATALAATLGADLILLSDVSGILDGKGQRIAEMTAAKAEQLIEQGIITDGMIVKVNAALDAARTLGRPVDIASWRHAEQLPALFNGMPMGTRILA [P0A6C8] , the logged total protein half-life in vivo turned out to be 10.3 h

###

- EXPERIMENTAL PROTOCOL: total protein half-life in vivo (active degradation + dilution); higher = more stable protein
- CONDITION: E. coli NCM3722 delta-smpB; growth: N-lim chemostat; doubling time 6 h
The entries below come with measured total protein half-life in vivo values attached.
The figure you give is taken to be in h; do not add the unit.

// known answers, use as guide
MALLDFFLSRKKNTANIAKERLQIIVAERRRSDAEPHYLPQLRKDILEVICKYVQIDPEMVTVQLEQKDGDISILELNVTLPEAEELK [P0A734]: 4.06
MSNQEPATILLIDDHPMLRTGVKQLISMAPDITVVGEASNGEQGIELAESLDPDLILLDLNMPGMNGLETLDKLREKSLSGRIVVFSVSNHEEDVVTALKRGADGYLLKDMEPEDLLKALHQAAAGEMVLSEALTPVLAASLRANRATTERDVNQLTPRERDILKLIAQGLPNKMIARRLDITESTVKVHVKHMLKKMKLKSRVEAAVWVHQERIF [P0AF28]: 4.17
MATLKDIAIEAGVSLATVSRVLNDDPTLNVKEETKHRILEIAEKLEYKTSSARKLQTGAVNQHHILAIYSYQQELEINDPYYLAIRHGIETQCEKLGIELTNCYEHSGLPDIKNVTGILIVGKPTPALRAAASALTDNICFIDFHEPGSGYDAVDIDLARISKEIIDFYINQGVNRIGFIGGEDEPGKADIREVAFAEYGRLKQVVREEDIWRGGFSSSSGYELAKQMLAREDYPKALFVASDSIAIGVLRAIHERGLNIPQDISLISVNDIPTARFTFPPLSTVRIHSEMMGSQGVNLVYEKARDGRALPLLVFVPSKLKLRGTTR: 5.35

Attention now shifts to the item below.
So for MQKRAIYPGTFDPITNGHIDIVTRATQMFDHVILAIAASPSKKPMFTLEERVALAQQATAHLGNVEVVGFSDLMANFARNQHATVLIRGLRAVADFEYEMQLAHMNRHLMPELESVFLMPSKEWSFISSSLVKEVARHQGDVTHFLPENVHQALMAKLA [P0A6I6] , the logged total protein half-life in vivo turned out to be 4.82
